Give normalized growth for every item shown.
- Procedure details: chemical genetic growth profiling, strain panel (AID 1159580);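 also: tested at 20 µM; growth read once vehicle control cultures reached saturation at 30 °C; 1 = growth at the plate median or of vehicle wells; lower values mean less growth of the strain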
- Setup conditions: S. cerevisiae deletion strains, growth OD, locus YNL271C, strain bni1, hits give low values
In all, about 5,500 compounds went through this assay and about 2,000 (36%) were called active. Roughly 18% stayed inconclusive and do not appear here. This is one part of the list.

See these solved cases before continuing.
Molecule	normalized growth
NC(CO)C(=O)NNCc1ccc(O)c(O)c1O (stereo not drawn)	1 (inactive)
COc1cc(-c2coc3cc(OC)c(OC)c(OC)c3c2=O)cc(OC)c1OC	0.995 (inactive)
COc1cc(-c2coc3cc(OCc4ccccc4)c(OC)c(O)c3c2=O)cc(O)c1OC	0.979 (inactive)

// for each molecule in input: emit normalized growth
1. COc1cc(-c2coc3cc(OCc4ccccc4)c(OC)c(O)c3c2=O)cc(OCc2ccccc2)c1OC
2. COC(=O)C[C@H]1C(C)(C)C(=O)[C@@H]2CC3=C(CC[C@]4(C)C3=CC(=O)O[C@H]4c3ccoc3)[C@@]1(C)C2=O
3. CCCCN1CCCCC1C(=O)Nc1c(C)cccc1C (stereo not drawn)
4. CC(C)(C)CC(C)(C)c1ccc(O)c(Cc2ccc(Cl)cc2Cl)c1

Found:
0.981 (inactive)
1.01 (inactive)
0.985 (inactive)
1.02 (inactive)

Lookup: Need normalized growth, item "O=C(Cn1ccnc1[N+](=O)[O-])NCCO"
Found: 0.999 (inactive)

* * *

- Procedure details: chemical genetic growth profiling, strain panel (AID 1159580);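 also: tested at 20 µM; growth read once vehicle control cultures reached saturation at 30 °C; 1 = growth at the plate median or of vehicle wells; lower values mean less growth of the strain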
- Setup conditions: S. cerevisiae deletion strains, growth OD, locus YJL134W, strain LCB3, hits give low values
Out of some 5,500 compounds screened, about 2,000 (36%) were called active. Inconclusive results (about 18%) are left out. The list shows a part of the results.
Give normalized growth for every item shown.
One number for each entry.

See these solved cases before continuing.
Compound	Result number
CC(=O)OCC(COC(C)=O)OC(C)=O	1.01
CC1C[C@H]2CC(=O)[C@H]3CCCN4CCC[C@H]2[C@]34C1 (stereo partly specified)	0.994
COc1c2ccoc2c(OC)c2oc(=O)ccc12	0.983
C#CCCCCCCCCCCCC(O)CC(O)CO (stereo unspecified)	1.03
CC(=O)OCC[C@H](C)CCC=C(C)C	1.01

Lookup: Need normalized growth, item COC(=O)C(O)c1ccccc1 (stereo unspecified)
Found: 0.992

* * *

- Procedure details: chemical genetic growth profiling, strain panel (AID 1159580);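 also: tested at 20 µM; growth read once vehicle control cultures reached saturation at 30 °C; 1 = growth at the plate median or of vehicle wells; lower values mean less growth of the strain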
- Setup conditions: S. cerevisiae deletion strains, growth OD, locus YJL129C, strain trk1
In all, about 5,500 compounds went through this assay and about 2,000 (36%) were called active. Inconclusive results (about 18%) are left out. No stated cut-off is given here; in the data, active means normalized growth mostly below about 0.91 (no sharp cut-off); inconclusive means no clear call, values can overlap the other calls; inactive means mostly above about 0.92. The list shows a part of the results.
Could you please pick one outcome from this set? true (1) = active, false (0) = inactive

Lookup: Please let me know the test result on file for O=C1[C@H](CCC(O)c2ccc(F)cc2)[C@@H](c2ccc(O)cc2)N1c1ccc(F)cc1 (stereo partly specified) .
Found: false (0)

* * *

- Procedure details: chemical genetic growth profiling, strain panel (AID 1159580);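 also: tested at 20 µM; growth read once vehicle control cultures reached saturation at 30 °C; 1 = growth at the plate median or of vehicle wells; lower values mean less growth of the strain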
- Setup conditions: S. cerevisiae deletion strains, growth OD, locus YLR342W, strain FKS1 (second series), hits give low values
Out of some 5,500 compounds screened, about 2,000 (36%) were called active. Not shown: some 18% with an inconclusive outcome. The list shows a part of the results.
Measured quantity: normalized growth
Numbers only.

Molecule	normalized growth
O=c1[nH]oc2c1CCNC2	0.989
CC1(C)NC(=O)N(c2ccc([N+](=O)[O-])c(C(F)(F)F)c2)C1=O	1.03
C=C1CCC2C(CC2(C)C)C(=C)CC/C1=N\O (stereo not given)	0.694
OCc1ccccc1O	1.01
CCCCCCOc1ccccc1C(N)=O	0.366
COc1cc([C@@H]2c3cc4c(c(O)c3C[C@H]3COC(=O)[C@@H]32)OCO4)cc(OC)c1OC	0.971
NC(N)=NS(=O)(=O)c1ccc(N)cc1	1.01
C=C1CCC(=O)C(C)CCC2C1CC2(C)C (stereo not given)	1.01
O=C1OC(c2ccc(O)cc2)(c2ccc(O)cc2)c2ccccc21	0.998
CCN(CC)CCOC(=O)c1ccc(N)cc1	1

// for each molecule in input: emit normalized growth
1. C=CCCCCCCCCCCCC(O)CC(O)COC(C)=O (stereo not given) (tested in a mixture with another compound)
2. C#CCCCCCCCCCCCC(=O)CC(O)COC(C)=O (stereo not given)
3. C=C1C(=O)O[C@@H]2C3O[C@]3(C)CC/C=C(\C)CC[C@@H]12 (stereo not given in full)
4. O=C1CC2OCC=C3CN4CC[C@]56c7ccccc7N1C5[C@H]2[C@H]3CC46 (stereo not given in full)

Found:
0.824
0.794
0.536
0.999
